Tested on: Mycobacterium tuberculosis
Assay: AntiMycobacterium tuberculosis activity day 10 in 7H9/2.5mM butyrate/pH6/0.1mM nitrite MIC90 (uM)
Assay type: functional
Conditions: 240 h

Compound: CCc1ccc([C@@H]2C[C@H](C(F)(F)F)n3ncc(C(=O)NCc4ccc(OC)cc4)c3N2)cc1
MIC90: > 50 µM
//
Compound: N#Cc1ccc(-c2ccc(OCC(N)=O)cc2)cc1
MIC90: > 50 µM
//
Compound: Cc1cccc(-c2nc(Nc3ccncn3)c3sccc3n2)n1
MIC90: 6.25 µM
//
Compound: COC(=O)c1c(NC(=O)c2c(F)c(F)c(F)c(F)c2F)sc2c1CCCCC2
MIC90: 3.1 µM
//
Compound: Nc1c2c(nc3sc4c(c13)CCCC4)CCCC2
MIC90: > 50 µM
//
Compound: CCCCc1ccc(C(=O)Nc2nccc3ccccc23)nc1
MIC90: 3.12 µM
//
Compound: O=C(C1CCN(c2nnc(-n3cccc3)s2)CC1)N1CCC(Cc2ccccc2)CC1
MIC90: 0.78 µM
//
Compound: CCc1nc2ccc(Cl)cn2c1C(=O)NCc1ccc(N2CCC(c3ccc(OC(F)(F)F)cc3)CC2)cc1 [TELACEBEC]
MIC90: ≤ 0.04 µM
//
Compound: NCC(c1cccs1)S(=O)(=O)c1ccccc1 (stereo not drawn)
MIC90: > 50 µM
//
Compound: O=C(c1cc2ccccc2o1)N1CCN(Cc2ccc3c(c2)OCO3)CC1
MIC90: > 50 µM
//
Compound: COc1cccc(-n2nnnc2S(=O)(=O)Cc2ccccc2)c1
MIC90: 6.25 µM
//
Compound: NC(CC(=O)c1ccc(Cl)cc1Cl)C(Cl)(Cl)Cl (stereo not drawn)
MIC90: > 50 µM
//
Compound: FC(F)(F)c1nnc2ccc(Cl)nn12
MIC90: > 50 µM
//
Compound: CCCn1nnc(NC(=O)COc2ccc(C3CCCCC3)cc2)n1
MIC90: 50 µM
//
Compound: CCOC(=O)c1c(NC(=O)c2c(F)c(F)c(F)c(F)c2F)sc(C(N)=O)c1C
MIC90: > 50 µM
//
Compound: COc1ccc(C2(C(=O)Nc3ccc(Br)cc3)CCCC2)cc1
MIC90: > 50 µM
//
Compound: Cc1nc2ccccn2c1C(=O)NCc1ccc(Cl)cc1
MIC90: > 50 µM
//
Compound: COc1cc(C(F)(F)F)nc2ccc(C)c(N)c12
MIC90: > 50 µM
//
Compound: CC1=NN(c2nc3ccccc3s2)C(=O)C1Cc1cccc2ccccc12 (stereo not drawn)
MIC90: 12.5 µM
//
Compound: O=C(C1CCN(c2cc(-n3cccc3)ncn2)CC1)N1CCc2ccccc2C1
MIC90: > 50 µM
//
Compound: c1coc(CNc2nc(N3CCCCC3)nc3ccccc23)c1
MIC90: 12.5 µM
//
Compound: Nc1cccnc1Nc1ccc(Cl)cc1
MIC90: > 50 µM
//
Compound: Nc1nc2cc(-c3cncc(Oc4ccc(F)cc4)c3)ccc2[nH]1
MIC90: 25 µM
//
Compound: CC(=O)NCC1CN(c2ccc(-c3ccc(CNCc4cn[nH]n4)cc3)c(F)c2)C(=O)O1 (stereo not drawn)
MIC90: 1.5 µM
//
Compound: CCC(C)NC(=O)c1ccc(NC(=O)C2(c3ccccc3)CCCC2)cc1 (stereo not drawn)
MIC90: > 50 µM
//
Compound: O=C(Nc1nc(-c2ccccn2)cs1)c1cncn1-c1ccccc1
MIC90: > 50 µM
//
Compound: COc1cccc(-n2nnnc2S(C)(=O)=O)c1
MIC90: 6.25 µM
//
Compound: COc1cccc(-c2nc3c(N4CCCC4)cccc3n2CC2CCCN2)n1 (stereo not drawn)
MIC90: > 50 µM
//
Compound: Cc1nn(Cc2ccccc2)c(Cl)c1C(=O)NC1CCCCCC1
MIC90: 3.12 µM
//
Compound: CC(C)=CCC/C(C)=C\CNCCNC1C2CC3CC(C2)CC1C3 (stereo not drawn)
MIC90: > 50 µM
//
Compound: Cc1cccc(Cn2ccc(NC(=O)c3ccc4c(c3)OCO4)n2)c1
MIC90: 50 µM
//
Compound: COc1ccc2nc(C)cc(OCC(=O)NCc3ccccc3)c2c1
MIC90: > 50 µM
//
Compound: COc1cccc(OC)c1C(=O)Nc1ccc(Cl)c(-c2nc3ccccc3s2)c1
MIC90: > 50 µM
//
Compound: Cn1c(=O)c2c(S(C)(=O)=O)snc2n(C)c1=O
MIC90: 12.5 µM
//
Compound: CCCn1c(CNc2ccccc2O)nc2ccccc21
MIC90: > 50 µM
//
Compound: c1cncc(NCc2ccc(-c3cc4ccncc4cc3OC3CCNCC3)s2)c1
MIC90: > 50 µM
//
Compound: O=C(NCCc1c[nH]c2ccccc12)c1cc2ccccc2oc1=O
MIC90: > 50 µM
//
Compound: CC(C)n1ncc2c(C(=O)NCC(c3cccs3)N3CCOCC3)cc(-c3ccccc3)nc21 (stereo not drawn)
MIC90: 1.5 µM

---

System: Mycobacterium tuberculosis
Experiment: AntiMycobacterium tuberculosis activity 2-week GAST/Fe MIC (uM)
Format: functional
Settings: 336 h
Quick reference for MIC among some compounds

Chemical Structure: O=C(Nc1nnc(-c2ccc(Cl)s2)o1)c1ccc(Cl)s1
Unit Text: µM
MIC: 1.2
//
Chemical Structure: COc1cccc(NC(=O)c2c(NC(=O)c3cccnc3)sc3c2CCC3)c1
Unit Text: µM
MIC: 12.5
//
Chemical Structure: Nc1cccnc1Nc1ccc(Cl)cc1
Unit Text: µM
MIC: 50
//
Chemical Structure: CCCn1nnc(NC(=O)COc2ccc(C3CCCCC3)cc2)n1
Unit Text: µM
MIC: 12.5
//
Chemical Structure: O=C(Nc1cccnc1)c1c(O)c2cccc3c2n(c1=O)CC3
Unit Text: µM
MIC: 3.13
//
Chemical Structure: COc1cccc(OC)c1C(=O)Nc1ccc(Cl)c(-c2nc3ccccc3s2)c1
Unit Text: µM
MIC: 9.4

---

Tested on: Schistosoma mansoni
Assay: AntiSchistosoma mansoni activity Newly Transformed Schistosomula: IC50 at 72h (uM)
Format: functional, organism-based
Observation Type: IC50 (nM)

Compound: CNc1nnc(Sc2cnn(-c3ccccc3)c(=O)c2Cl)s1
Observation Type: IC50
Obs Value: 150

Compound: c1ccc(Oc2ccc(-c3cncc(-c4ccc5[nH]ccc5c4)n3)cc2)cc1
Observation Type: IC50
Obs Value: 270

Compound: Cc1[nH]c2ccccc2c1C(c1cccs1)N1CCN(C)CC1 (configuration not stated)
Observation Type: IC50
Obs Value: 290

Compound: COc1ccc(-c2nnc3ccc(-c4cccc(C(C)C)c4)cn23)cc1OC
Observation Type: IC50
Obs Value: 5690

Compound: COc1ccc(-c2cnc3cnc(-c4cccc(OC(C)C)c4)cn23)cc1
Observation Type: IC50
Obs Value: 1180

Compound: Cn1ncc2c(N3CCOCC3)nc(NCCc3c[nH]c4ccccc34)nc21
Observation Type: IC50
Obs Value: 430

Compound: c1ccc(-c2[nH]c3ccccc3c2C(c2ccccn2)N2CCCC2)cc1 (configuration not stated)
Observation Type: IC50
Obs Value: 510

---

Tested on: Mycobacterium tuberculosis
Test: AntiMycobacterium tuberculosis activity 2-week GAST/Fe MIC (uM)
Type: functional
Conditions: 336 h
Quick reference for MIC among some compounds
Observation Type: MIC (µM)

Chemical Structure: Cc1cc(NCCc2ccccc2)nc(NC(=N)Nc2ccc(Cl)cc2)n1
Obs Value: 0.78

Chemical Structure: COc1ccc(-c2nc(-c3cccc(NC(=O)Cc4ccc(F)cc4)c3)no2)cc1OC
Obs Value: 1.56

Chemical Structure: COc1ccc(-c2cc(NC(=O)c3ccc(F)cc3Cl)ccc2OC)cc1
Obs Value: 19

Chemical Structure: CCc1ccc([C@@H]2C[C@H](C(F)(F)F)n3ncc(C(=O)NCc4ccc(OC)cc4)c3N2)cc1
Obs Value: 0.1

Chemical Structure: c1ccc(-c2nc(NC3CCCCC3)cc(C3CC3)n2)nc1
Obs Value: 25

---

Quick reference for Inhibition among some compounds
Test system: Toxoplasma gondii
Test: AntiToxoplasma gondii activity data 2-day killing assay: inhibition at 10 uM (%) Experiment D
Format: functional

Compound: CC(Oc1cccc(Cl)c1)C(=O)Nc1ccc2oc(-c3ccncc3)nc2c1 (stereo unspecified)
Inhibition / %: 85.4
//
Compound: CC(C)n1nc(-c2cc3c(Cl)cccc3[nH]2)c2c(N)ncnc21
Inhibition / %: 100
//
Compound: Nc1ncnc2c1c(-c1cnc3ccccc3c1)nn2CC1CCNCC1
Inhibition / %: 72.3
//
Compound: CC(C)(C)OC(=O)N1CCC(Cn2nc(-c3cnc4ccccc4c3)c3c(N)ncnc32)CC1
Inhibition / %: 36.1
//
Compound: Cc1cc2nc(NC(=O)C(C)(C)C)nc(Cl)c2n1Cc1ccc(Cl)cc1
Inhibition / %: 63.9
//
Compound: CC(C)(C)n1nc(Cc2ccc(F)c(Cl)c2)c2c(N)ncnc21
Inhibition / %: 100
//
Compound: Nc1nc(N)c2c3c(sc2n1)CN(Cc1ccccc1)CC3
Inhibition / %: 83.2
//
Compound: CC(C)(C)n1nc(-c2ccccc2)c2c(N)ncnc21
Inhibition / %: 100
//
Compound: CS(=O)(=O)N1CCC(CCn2nc(Cc3cccc4ccccc34)c3c(N)ncnc32)CC1
Inhibition / %: 63.9
//
Compound: CN1CCC(c2cc(-c3ccncc3)c(-c3ccc(F)cc3)[nH]2)CC1
Inhibition / %: 100
//
Compound: Cc1cc(NC(=O)c2ccc(Oc3ccc(Cl)cc3O)o2)no1
Inhibition / %: 64.8

Taken from ChEMBL document CHEMBL3832761.
